System: U2OS
Experiment: Multiplex assay against U2OS
Assay type: toxicity, cell-based
Conditions: human, 24 h, 1 µM, compound concentration 1 uM, replicate 1
Label FALSE if Population Tubulin-Different-Phenotype (%) falls below 10%; label TRUE in every other case.

Mol smiles	Label class
CNC(=O)Nc1ccc(-c2nc(N3CC4CCC(C3)O4)c3cnn(C4CCC5(CC4)OCCO5)c3n2)cc1	TRUE
CC(C)(C)NC[C@H](O)COc1nsnc1N1CCOCC1	TRUE
COc1cc(Nc2nccc(-c3cnn4nc(OC)ccc34)n2)cc(C(F)(F)F)c1	TRUE

Is reported Population Tubulin-Different-Phenotype (%) greater than or equal to 10% here: CN1CCN(Cc2ccc(Nc3ncc(Cl)c(Nc4ccccc4S(=O)(=O)N(C)C)n3)cc2)CC1 FALSE

Is reported Population Tubulin-Different-Phenotype (%) greater than or equal to 10% here: CC(C)CC(=O)Nc1[nH]nc2c1CN(C(=O)C1CCN(C)CC1)C2(C)C TRUE

Is reported Population Tubulin-Different-Phenotype (%) greater than or equal to 10% here: Cc1cc(C)c(-n2ccn3nc(-c4cccnc4)cc23)cc1NC(=O)c1cc(C#N)cc(S(F)(F)(F)(F)F)c1 TRUE

Is reported Population Tubulin-Different-Phenotype (%) greater than or equal to 10% here: COc1ccccc1CN[C@H]1C2CCN(CC2)[C@H]1C(c1ccccc1)c1ccccc1 FALSE

Is reported Population Tubulin-Different-Phenotype (%) greater than or equal to 10% here: C=CC(=O)Nc1ccc2[nH]c(=O)n(C3CCN(Cc4ccc(-c5nc6cc[nH]c(=O)c6cc5-c5ccccc5)cc4)CC3)c2c1 TRUE

Is reported Population Tubulin-Different-Phenotype (%) greater than or equal to 10% here: CC(C)Oc1ccccc1C(=O)Nc1ccccc1C(=O)Nc1cccc(S(=O)(=O)C(F)(F)F)c1 TRUE

Is reported Population Tubulin-Different-Phenotype (%) greater than or equal to 10% here: CCc1ccc(OCc2ccccc2C(=O)Nc2ccc3nc(C)cc(N)c3c2)cc1.Cl TRUE

Is reported Population Tubulin-Different-Phenotype (%) greater than or equal to 10% here: CNC(=O)Nc1ccc2c(c1)[C@@]1(CC2)OC(=O)N(CC(=O)N(Cc2ccc(F)cc2)[C@@H](C)C(F)(F)F)C1=O TRUE

Is reported Population Tubulin-Different-Phenotype (%) greater than or equal to 10% here: Cc1nc(N2CC[C@H](O)C2)ncc1-c1cc(C(F)(F)F)cc2[nH]ncc12 TRUE

* * *

Assignment: determine reported Population Healthy Nuclei (%) for the given compounds.
System: U2OS
Test: Multiplex assay against U2OS
Format: toxicity, cell-based
Settings: human, 48 h, 10 µM, compound concentration 10 uM, replicate 2
Answers are plain numbers, in %.

Compound	System under test	Population Healthy Nuclei (%)
Cc1ccc(C)c(Oc2ccncc2C(=O)N2CCN(C3CC3)c3ccccc32)c1	U2OS	55
CC(C)OC(=O)N1CCC(Oc2ncnc3c2cnn3-c2ccc(S(C)(=O)=O)cc2F)CC1	U2OS	92
COC(=O)C1=C(C)NC(C)=C(C(=O)OCCCN2CCC(c3ccccc3)(c3ccccc3)CC2)[C@H]1c1cccc([N+](=O)[O-])c1	U2OS	28
Cl.O=C(O)c1cc(-c2ccc(C3CCNCC3)cc2)c2ccc(-c3ccc(C(F)(F)F)cc3)cc2c1	U2OS	66
COc1cc2ncn(-c3cc(OCc4ccccc4C(F)(F)F)c(C(N)=O)s3)c2cc1OC [GW843682X]	U2OS	62

Would you mind listing Population Healthy Nuclei (%) for each of the following compounds?
1. COc1cc(Nc2nccc(-c3cnn4nc(OC)ccc34)n2)cc(C(F)(F)F)c1
2. CCOC(=O)Nc1cc(-c2ccc(C)c(NS(C)(=O)=O)c2)nn2c(C)nnc12
3. O=c1cc(N2CCOCC2)oc2c(-c3cccc4c3sc3ccccc34)cccc12
4. C[C@]12CC[C@@H]3c4ccc(O)cc4CC[C@H]3[C@@H]1CC[C@@H]2O
5. CC(C)NC(=O)N1CC[C@H](NC2=Nc3cc(F)ccc3N(CC(F)F)c3ccc(Cl)cc32)C1
6. Cc1c[nH]c2nccc(Oc3c(F)cc(Nc4cc(Cl)nc(N)n4)cc3F)c12

[48, 90, 25, 76, 60, 63]

Would you mind listing Population Healthy Nuclei (%) for each of the following compounds?
1. CCc1nn(CCCN2CCN(c3cccc(Cl)c3)CC2)c(=O)n1CCOc1ccccc1.Cl [NEFAZODONE HYDROCHLORIDE]
2. COc1ccc(-c2ccc3ncc4c(c3c2)n(-c2ccc(N3CCNCC3)c(C(F)(F)F)c2)c(=O)n4C)cn1.O=C(O)/C=C\C(=O)O
3. COc1ccccc1CN[C@H]1C2CCN(CC2)[C@H]1C(c1ccccc1)c1ccccc1
4. CC(C)c1noc(N2CCC(COc3ccc(-c4ccc(S(C)(=O)=O)cc4)nc3)CC2)n1

1: 43; 2: 12; 3: 80; 4: 80

Would you mind listing Population Healthy Nuclei (%) for each of the following compounds?
1. O=C(c1cc2c(cc1F)OC(c1ccc(F)cc1)(c1ccc(Cl)cc1Cl)O2)N1CCOCC1 (configuration not stated)
2. Cc1ccc2c(c1)c1c(n2CCc2ccc(C)nc2)CCN(C)C1 [LATREPIRDINE]

50
44

* * *

Test system: Fibroblast
Assay: Incucyte cell viability with human fibroblast; also: filed as whole numbers so only -1 and 0 and 1 occur
Type: toxicity, cell-based
Settings: 12 h, 10 µM, compound concentration 10 uM, replicate number 1, timepoint 12 hours
Observation type: Growth Rate

Mol smiles	System under test	Growth Rate
O=C([O-])c1cc2ccccc2c(Cc2c(O)c(C(=O)[O-])cc3ccccc23)c1O.[Na+].[Na+]	Fibroblast	1
C[C@H](N)COC(=O)[C@@H](CCCCN)NC(=O)Cc1c(-c2ccc3ccccc3c2)[nH]c2c1ccc1ccccc12	Fibroblast	1
Cn1c(CNc2cccc(C(=O)NCc3ccccc3C(F)(F)F)c2)nnc1-c1ccncc1	Fibroblast	0

API: the following record is the query input.
Output measured Growth Rate for this item: O=C1CCc2cc(Nc3cc(OC4CCOCC4)c([N+](=O)[O-])cc3Cl)ccc2N1 0

* * *

Tested on: HEK-293T
Assay: Multiplex assay against HEK293T
Format: toxicity, cell-based
Conditions: human, 48 h, 10 µM, compound concentration 10 uM, replicate 2
Observation type: Population Healthy Nuclei (%)
Numbers only, in %.

The cases that follow already have their Population Healthy Nuclei (%) on record.
Mol smiles	Units symbol	Population Healthy Nuclei (%)
CCc1ccc(OCc2ccccc2C(=O)Nc2ccc3nc(C)cc(N)c3c2)cc1.Cl	%	50
CC(C)c1noc(N2CCC(COc3ccc(-c4ccc(S(C)(=O)=O)cc4)nc3)CC2)n1	%	62

Would you mind listing Population Healthy Nuclei (%) for each of the following compounds?
1. C#Cc1cccc(Nc2ncnc3cc(OCCOC)c(OCCOC)cc23)c1
2. COC(=O)C1=C(C)NC(C)=C(C(=O)OCCCN2CCC(c3ccccc3)(c3ccccc3)CC2)[C@H]1c1cccc([N+](=O)[O-])c1

[56, 6]

* * *

Test system: U2OS
Assay: Multiplex assay against U2OS
Assay type: toxicity, cell-based
Conditions: human, 24 h, 1 µM, compound concentration 1 uM, replicate 1
Observation type: Population Membrane Permeable-Phenotype (%)
Numbers only, in %.

Compound	Value measured
CC(C)NC(=O)N1CC[C@H](NC2=Nc3cc(F)ccc3N(CC(F)F)c3ccc(Cl)cc32)C1	10
CNC(=O)Nc1ccc2c(c1)[C@@]1(CC2)OC(=O)N(CC(=O)N(Cc2ccc(F)cc2)[C@@H](C)C(F)(F)F)C1=O	45
CCCSc1nc(N[C@@H]2C[C@H]2c2ccc(F)c(F)c2)c2nnn([C@@H]3C[C@H](OCCO)[C@@H](O)[C@H]3O)c2n1	3
O=c1cc(N2CCOCC2)oc2c(-c3cccc4c3sc3ccccc34)cccc12	4
O=c1[nH]c2ccccc2n1C1CCN(Cc2ccc(-c3[nH]c4cc5ncnc5cc4nc3-c3ccccc3)cc2)CC1	31
CC(C)Oc1ccccc1C(=O)Nc1ccccc1C(=O)Nc1cccc(S(=O)(=O)C(F)(F)F)c1	2

Would you mind listing Population Membrane Permeable-Phenotype (%) for each of the following compounds?
1. Cc1ccc2c(c1)c1c(n2CCc2ccc(C)nc2)CCN(C)C1 [LATREPIRDINE]
2. COc1ccc(-c2ccc3ncc4c(c3c2)n(-c2ccc(N3CCNCC3)c(C(F)(F)F)c2)c(=O)n4C)cn1.O=C(O)/C=C\C(=O)O
3. Cc1cccc(CN2CCN(C(c3ccccc3)c3ccc(Cl)cc3)CC2)c1.Cl.Cl (configuration not stated)
4. CC(C)CC(=O)Nc1[nH]nc2c1CN(C(=O)C1CCN(C)CC1)C2(C)C
5. Cl.O=C(O)c1cc(-c2ccc(C3CCNCC3)cc2)c2ccc(-c3ccc(C(F)(F)F)cc3)cc2c1
6. CC1=C(C(=O)Nc2cc3cn[nH]c3cc2F)C(c2ccc(C(F)(F)F)cc2)CC(=O)N1 (configuration not stated)
7. CC(C)c1noc(N2CCC(COc3ccc(-c4ccc(S(C)(=O)=O)cc4)nc3)CC2)n1
8. Cc1c[nH]c2nccc(Oc3c(F)cc(Nc4cc(Cl)nc(N)n4)cc3F)c12

4
75
2
3
3
6
5
9

Would you mind listing Population Membrane Permeable-Phenotype (%) for each of the following compounds?
1. O=C(c1cc2c(cc1F)OC(c1ccc(F)cc1)(c1ccc(Cl)cc1Cl)O2)N1CCOCC1 (configuration not stated)
2. C=CC(=O)Nc1cccc(Oc2nc(Nc3ccc(N4CCN(C)CC4)cc3OC)ncc2Cl)c1
3. CCc1nn(CCCN2CCN(c3cccc(Cl)c3)CC2)c(=O)n1CCOc1ccccc1.Cl [NEFAZODONE HYDROCHLORIDE]
4. C=CC(=O)Nc1ccc2[nH]c(=O)n(C3CCN(Cc4ccc(-c5nc6cc[nH]c(=O)c6cc5-c5ccccc5)cc4)CC3)c2c1
5. COc1cc(Nc2nccc(-c3cnn4nc(OC)ccc34)n2)cc(C(F)(F)F)c1
6. C[C@]12CC[C@@H]3c4ccc(O)cc4CC[C@H]3[C@@H]1CC[C@@H]2O
7. CCc1ccc(OCc2ccccc2C(=O)Nc2ccc3nc(C)cc(N)c3c2)cc1.Cl
8. CN1CCN(Cc2ccc(Nc3ncc(Cl)c(Nc4ccccc4S(=O)(=O)N(C)C)n3)cc2)CC1

5
70
3
8
7
6
57
11

Would you mind listing Population Membrane Permeable-Phenotype (%) for each of the following compounds?
1. COc1ccccc1CN[C@H]1C2CCN(CC2)[C@H]1C(c1ccccc1)c1ccccc1
2. Cc1nc(N2CC[C@H](O)C2)ncc1-c1cc(C(F)(F)F)cc2[nH]ncc12
3. CNC(=O)Nc1ccc(-c2nc(N3CC4CCC(C3)O4)c3cnn(C4CCC5(CC4)OCCO5)c3n2)cc1
4. CC(C)OC(=O)N1CCC(Oc2ncnc3c2cnn3-c2ccc(S(C)(=O)=O)cc2F)CC1
5. COC(=O)C1=C(C)NC(C)=C(C(=O)OCCCN2CCC(c3ccccc3)(c3ccccc3)CC2)[C@H]1c1cccc([N+](=O)[O-])c1

[6, 7, 0, 5, 76]
